system: isolated rat liver mitochondria; experiment: Residual functional capacity / inhibitory effect on ADP-stimulated (state 3) oxygen consumption; type: biochemical; settings: test conc. 100 μM; functional capacity (state 3 minus state 4 rate) as % of vehicle-treated mitochondria
Assay Endpoint: Residual capacity (%)

1. Cc1ccc(C(C)C)cc1O [carvacrol]
83
2. O=[N+]([O-])c1ccc(O)c([N+](=O)[O-])c1 [2,4-dinitrophenol]
0
3. Oc1cc(O)cc(/C=C/c2ccc(O)c(O)c2)c1 [piceatannol (trans)]
6
4. O=C(O)/C=C/c1ccc(O)c(O)c1 [caffeic acid]
79
5. COc1ccc(-c2coc3cc(O)cc(O)c3c2=O)cc1 [biochanin A]
0
6. COc1cc(/C=C/C(=O)c2ccc(O)cc2O)ccc1O [homobutein]
22
7. O=c1c(O)c(-c2ccc(O)cc2)oc2cc(O)cc(O)c12 [kaempferol]
28
8. Cc1ccc(C(C)C)c(O)c1 [thymol]
65
9. Oc1cccc(O)c1 [resorcinol]
91

----------
system: isolated rat liver mitochondria; experiment: Residual functional capacity / inhibitory effect on ADP-stimulated (state 3) oxygen consumption; format: biochemical; settings: test conc. 100 μM
Everything with Inhibitory effect (%) lower than 9% is -1; everything else, including exactly 9%, is 1.

1. O=C(/C=C/c1ccccc1)c1ccc(O)cc1 [4′-hydroxychalcone]
-1
2. O=C(/C=C/c1ccccc1)c1ccccc1 [chalcone]
1
3. Cc1cc(O)c2c(c1)C(=O)c1cc(O)cc(O)c1C2=O [frangulic acid]
1
4. Oc1cccc(O)c1O [pyrogallol]
1
5. COc1ccc(-c2cc(=O)c3c(O)cc(O)c(-c4cc(-c5cc(=O)c6c(O)cc(OC)cc6o5)ccc4OC)c3o2)cc1 [sciadopitysin]
-1
6. O=[N+]([O-])c1ccc(O)c([N+](=O)[O-])c1 [2,4-dinitrophenol]
-1
7. O=c1cc(-c2ccccc2)oc2ccccc12 [flavone]
1
8. Oc1cc(O)c2c(c1)OC(c1ccc(O)c(O)c1)C(O)C2 (single isomer, unassigned; (+)) [(+) catechin, catechin]
-1

----------
system: isolated rat liver mitochondria; experiment: Residual functional capacity / inhibitory effect on ADP-stimulated (state 3) oxygen consumption; type: biochemical; details: test conc. 100 μM; functional capacity (state 3 minus state 4 rate) as % of vehicle-treated mitochondria
Label scheme, based on Residual capacity (%): low end: < 40%; middle: ≥ 40% and < 90%; high end: ≥ 90%

1. O=C(O)c1cc(O)c(O)c(O)c1
high end
2. Oc1ccc(C=Cc2cc(O)cc(O)c2)cc1 [resveratrol (trans)]
low end
3. O=C1C[C@@H](c2ccc(O)cc2)Oc2cc(O)cc(O)c21 (racemic) [(±) naringenin, naringenin]
middle
4. COc1ccc(-c2cc(=O)c3c(O)cc(O)c(-c4cc(-c5cc(=O)c6c(O)cc(OC)cc6o5)ccc4OC)c3o2)cc1
high end
5. COc1cc(/C=C/C(=O)CC(=O)/C=C/c2ccc(O)c(OC)c2)ccc1O
low end
6. Oc1cccc(O)c1O
middle
7. O=C(/C=C/c1ccccc1)c1ccccc1
low end
8. O=c1cc(-c2ccc(O)cc2)oc2c(-c3c(O)cc(O)c4c(=O)cc(-c5ccc(O)cc5)oc34)c(O)cc(O)c12
high end
9. O=c1cc(-c2ccc(O)cc2)oc2cc(O)cc(O)c12
low end
10. COc1ccc(C2CC(=O)c3c(O)cc(O)cc3O2)cc1O (racemic) [(±) hesperetin, hesperetin]
middle
11. O=c1c(-c2ccc(O)cc2)coc2cc(O)cc(O)c12
low end
12. O=c1c(-c2ccc(O)cc2)coc2cc(O)ccc12
middle
13. CC(=O)c1ccc(O)cc1
middle
14. O=C1c2ccccc2C(=O)c2ccccc21
middle
15. O=c1ccoc2cc(O)ccc12 [7-hydroxychromone]
middle
16. COc1cc(C=O)ccc1O
middle
17. O=c1c(O)c(-c2ccccc2O)oc2cc(O)cc(O)c12
low end
18. O=C(/C=C/c1ccc(O)cc1)c1ccc(O)cc1O
low end

----------
system: isolated rat liver mitochondria; assay: Uncoupling activity: increase in basal (state 4) oxygen consumption by oxygraphy; format: biochemical; settings: Suppl. Table 1; 100 μM; 2-3 mitochondrial preparations
Assay Endpoint: Measured Uncoupling Activity (% uncoupling ± SEM @ 100 μM) (% uncoupling)

1. COc1ccc(-c2coc3cc(O)cc(O)c3c2=O)cc1
103
2. O=C(/C=C/c1ccccc1)c1ccccc1
−6
3. O=C(O)c1cc(O)c(O)c(O)c1
−2
4. Oc1cc(O)c2c(c1)OC(c1ccc(O)c(O)c1)C(O)C2 (single isomer, unassigned; (+)) [(+) catechin, catechin]
−2
5. O=c1ccoc2cc(O)ccc12 [7-hydroxychromone]
0
6. COc1cc(C=O)ccc1O
0
7. Oc1cccc(O)c1O
1
8. Oc1ccccc1O
0
9. O=c1c(O)c(-c2cc(O)c(O)c(O)c2)oc2cc(O)cc(O)c12
11
10. O=c1c(-c2ccc(O)cc2)coc2cc(O)ccc12
6
11. O=c1c(-c2ccc(O)cc2)coc2cc(O)cc(O)c12
74
12. O=C(O)c1ccccc1O
4
13. Oc1cccc(O)c1
0
14. Cc1cc(O)c2c(c1)C(=O)c1cc(O)cc(O)c1C2=O
78
15. O=c1c(O)c(-c2ccc(O)c(O)c2)oc2cc(O)cc(O)c12
8
16. O=C(O)/C=C/c1ccc(O)c(O)c1
0
17. COc1cc(/C=C/C(=O)O)ccc1O
−1
18. O=c1c(O)c(-c2ccccc2O)oc2cc(O)cc(O)c12
33
19. O=C(/C=C/c1ccc(O)c(O)c1)c1ccc(O)cc1O
71
20. Oc1cc(O)cc(/C=C/c2ccc(O)c(O)c2)c1 [trans-piceatannol]
5
21. COc1cc(/C=C/C(=O)c2ccc(O)cc2O)ccc1O
56
22. Oc1ccc(O)cc1 [hydroquinone]
0
23. O=C(/C=C/c1ccc(O)cc1)c1ccc(O)cc1O
108
24. CC(=O)c1ccc(O)cc1
0
25. COc1ccc(-c2cc(=O)c3c(O)cc(O)c(-c4cc(-c5cc(=O)c6c(O)cc(OC)cc6o5)ccc4OC)c3o2)cc1
−1
26. Cc1ccc(C(C)C)cc1O
7
27. C(=C\c1ccccc1)/c1ccccc1 [trans-stilbene]
−1
28. O=C1C[C@@H](c2ccc(O)cc2)Oc2cc(O)cc(O)c21 (racemic) [(±) naringenin, naringenin]
4
29. Oc1cc(O)cc(/C=C/c2ccccc2)c1 [trans-pinosylvin, pinosylvin]
3
30. O=c1cc(-c2ccc(O)cc2)oc2c(-c3c(O)cc(O)c4c(=O)cc(-c5ccc(O)cc5)oc34)c(O)cc(O)c12
−2
31. O=c1cc(-c2ccc(O)cc2)oc2cc(O)cc(O)c12
19
32. COc1cc(C2Oc3cc([C@H]4Oc5cc(O)cc(O)c5C(=O)[C@@H]4O)ccc3OC2CO)ccc1O (stereo partly drawn)
5
33. O=c1c(O)c(-c2ccc(O)cc2O)oc2cc(O)cc(O)c12
1
34. O=C1c2ccccc2C(=O)c2ccccc21
−1
35. O=c1c(O)c(-c2ccc(O)cc2)oc2cc(O)cc(O)c12
25
36. O=c1cc(-c2ccccc2)oc2ccccc12
−1
37. Oc1ccc(/C=C/c2cc(O)cc(O)c2)cc1 [trans-resveratrol]
2
38. Cc1ccc(C(C)C)c(O)c1
6
39. O=C(/C=C/c1ccccc1)c1ccc(O)cc1 [4′-hydroxychalcone]
74
40. O=c1c(O)c(-c2ccccc2)oc2cc(O)cc(O)c12
95
41. O=C(CCc1ccc(O)cc1)c1c(O)cc(O)cc1O
15
42. COc1ccc(C2CC(=O)c3c(O)cc(O)cc3O2)cc1O (racemic) [(±) hesperetin, hesperetin]
5

----------
test system: isolated rat liver mitochondria; assay: Residual functional capacity / inhibitory effect on ADP-stimulated (state 3) oxygen consumption; format: biochemical; conditions: test conc. 100 μM; functional capacity (state 3 minus state 4 rate) as % of vehicle-treated mitochondria
Everything with Residual capacity (%) lower than 40% is 0; everything else, including exactly 40%, is 1.

1) O=c1c(O)c(-c2ccccc2)oc2cc(O)cc(O)c12 [galangin]
0
2) Oc1cc(O)c2c(c1)OC(c1ccc(O)c(O)c1)C(O)C2 (single isomer, unassigned; (+)) [(+) catechin, catechin]
1
3) COc1cc(C2Oc3cc([C@H]4Oc5cc(O)cc(O)c5C(=O)[C@@H]4O)ccc3OC2CO)ccc1O (some centres unmarked) [silibinin (A and B), silibinin]
0
4) O=C(/C=C/c1ccccc1)c1ccc(O)cc1 [4′-hydroxychalcone]
0

----------
system: isolated rat liver mitochondria; assay: Uncoupling activity: increase in basal (state 4) oxygen consumption by oxygraphy; assay type: biochemical; settings: test conc. 25 μM; increase in basal (state 4) oxygen consumption as % of average ADP-stimulated (state 3) rate in vehicle-treated mitochondria
Response field label: string, one of yes (Uncoupling (%) strictly below 30%) or no.

1) COc1ccc(-c2coc3cc(O)cc(O)c3c2=O)cc1
no
2) O=c1c(O)c(-c2cc(O)c(O)c(O)c2)oc2cc(O)cc(O)c12
yes
3) O=C(/C=C/c1ccc(O)c(O)c1)c1ccc(O)cc1O
yes
4) O=c1c(O)c(-c2ccc(O)c(O)c2)oc2cc(O)cc(O)c12
yes
5) O=c1c(O)c(-c2ccc(O)cc2)oc2cc(O)cc(O)c12
yes
